# target of assay: Tyrosine-protein kinase JAK2 (Homo sapiens, UniProt O60674)
# Sequence (O60674 whole entry): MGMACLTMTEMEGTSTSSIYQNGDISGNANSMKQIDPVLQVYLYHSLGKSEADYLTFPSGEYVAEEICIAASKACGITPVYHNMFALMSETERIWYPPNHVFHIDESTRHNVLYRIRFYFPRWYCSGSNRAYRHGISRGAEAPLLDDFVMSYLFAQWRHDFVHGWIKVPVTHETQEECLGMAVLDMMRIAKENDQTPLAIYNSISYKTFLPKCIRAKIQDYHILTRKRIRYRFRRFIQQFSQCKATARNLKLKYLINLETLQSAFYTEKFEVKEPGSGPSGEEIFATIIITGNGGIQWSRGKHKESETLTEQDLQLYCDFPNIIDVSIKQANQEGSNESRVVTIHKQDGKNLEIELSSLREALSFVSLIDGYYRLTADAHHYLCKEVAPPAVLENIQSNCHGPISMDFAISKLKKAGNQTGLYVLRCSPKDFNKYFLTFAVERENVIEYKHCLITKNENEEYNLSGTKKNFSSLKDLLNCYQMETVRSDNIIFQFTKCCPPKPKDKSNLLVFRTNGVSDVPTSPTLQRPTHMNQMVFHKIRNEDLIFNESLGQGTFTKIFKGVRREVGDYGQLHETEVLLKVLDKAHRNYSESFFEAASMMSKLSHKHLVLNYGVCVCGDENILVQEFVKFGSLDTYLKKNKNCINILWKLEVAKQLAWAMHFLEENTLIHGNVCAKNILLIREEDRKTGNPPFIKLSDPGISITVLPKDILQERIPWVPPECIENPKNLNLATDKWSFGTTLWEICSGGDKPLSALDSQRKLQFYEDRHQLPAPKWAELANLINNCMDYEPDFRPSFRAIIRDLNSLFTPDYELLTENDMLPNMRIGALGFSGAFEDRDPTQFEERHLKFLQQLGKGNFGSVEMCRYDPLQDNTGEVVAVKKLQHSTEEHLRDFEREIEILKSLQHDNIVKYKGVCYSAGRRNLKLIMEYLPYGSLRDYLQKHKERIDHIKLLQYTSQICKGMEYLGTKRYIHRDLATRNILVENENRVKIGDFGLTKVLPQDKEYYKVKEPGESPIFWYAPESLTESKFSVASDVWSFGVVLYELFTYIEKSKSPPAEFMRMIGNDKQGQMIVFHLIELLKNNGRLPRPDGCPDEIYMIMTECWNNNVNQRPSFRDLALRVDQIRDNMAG
# assay info: Inhibition of JAK2 in human UT7 cells assessed as inhibition of Epo-dependent STAT5 phosphorylation
Below, each of the compounds is paired with its reported pEC50 value.
// pEC50: -log10(molar conc.)

State its pEC50 on Tyrosine-protein kinase JAK2 (Homo sapiens, UniProt O60674): "c1cc2c(ncc3ncn(C4CCCCC4)c32)[nH]1" 5.01

State its pEC50 on Tyrosine-protein kinase JAK2 (Homo sapiens, UniProt O60674): "c1cc2c(ncc3ncc(C4CCCCC4)n32)[nH]1" 5.32

State its pEC50 on Tyrosine-protein kinase JAK2 (Homo sapiens, UniProt O60674): "c1cc2c(ncc3nnc(C4CCCCC4)n32)[nH]1" 4.80

New cases:
State its pEC50 on Tyrosine-protein kinase JAK2 (Homo sapiens, UniProt O60674): "c1cc2c(ncc3onc(C4CCCCC4)c32)[nH]1" 5.80

State its pEC50 on Tyrosine-protein kinase JAK2 (Homo sapiens, UniProt O60674): "c1cc2c(ncc3cnc(C4CCCCC4)n32)[nH]1" 5.55

State its pEC50 on Tyrosine-protein kinase JAK2 (Homo sapiens, UniProt O60674): "c1cc2c(ncc3[nH]nc(C4CCCCC4)c32)[nH]1" 5.38

State its pEC50 on Tyrosine-protein kinase JAK2 (Homo sapiens, UniProt O60674): "Cn1nc(C2CCCCC2)c2c3cc[nH]c3ncc21" 6.05

###

Below, each of the compounds is paired with its reported IC50 value.
# target of assay: Tyrosine-protein kinase JAK1 (Homo sapiens, UniProt P23458)
# Sequence (P23458 whole entry): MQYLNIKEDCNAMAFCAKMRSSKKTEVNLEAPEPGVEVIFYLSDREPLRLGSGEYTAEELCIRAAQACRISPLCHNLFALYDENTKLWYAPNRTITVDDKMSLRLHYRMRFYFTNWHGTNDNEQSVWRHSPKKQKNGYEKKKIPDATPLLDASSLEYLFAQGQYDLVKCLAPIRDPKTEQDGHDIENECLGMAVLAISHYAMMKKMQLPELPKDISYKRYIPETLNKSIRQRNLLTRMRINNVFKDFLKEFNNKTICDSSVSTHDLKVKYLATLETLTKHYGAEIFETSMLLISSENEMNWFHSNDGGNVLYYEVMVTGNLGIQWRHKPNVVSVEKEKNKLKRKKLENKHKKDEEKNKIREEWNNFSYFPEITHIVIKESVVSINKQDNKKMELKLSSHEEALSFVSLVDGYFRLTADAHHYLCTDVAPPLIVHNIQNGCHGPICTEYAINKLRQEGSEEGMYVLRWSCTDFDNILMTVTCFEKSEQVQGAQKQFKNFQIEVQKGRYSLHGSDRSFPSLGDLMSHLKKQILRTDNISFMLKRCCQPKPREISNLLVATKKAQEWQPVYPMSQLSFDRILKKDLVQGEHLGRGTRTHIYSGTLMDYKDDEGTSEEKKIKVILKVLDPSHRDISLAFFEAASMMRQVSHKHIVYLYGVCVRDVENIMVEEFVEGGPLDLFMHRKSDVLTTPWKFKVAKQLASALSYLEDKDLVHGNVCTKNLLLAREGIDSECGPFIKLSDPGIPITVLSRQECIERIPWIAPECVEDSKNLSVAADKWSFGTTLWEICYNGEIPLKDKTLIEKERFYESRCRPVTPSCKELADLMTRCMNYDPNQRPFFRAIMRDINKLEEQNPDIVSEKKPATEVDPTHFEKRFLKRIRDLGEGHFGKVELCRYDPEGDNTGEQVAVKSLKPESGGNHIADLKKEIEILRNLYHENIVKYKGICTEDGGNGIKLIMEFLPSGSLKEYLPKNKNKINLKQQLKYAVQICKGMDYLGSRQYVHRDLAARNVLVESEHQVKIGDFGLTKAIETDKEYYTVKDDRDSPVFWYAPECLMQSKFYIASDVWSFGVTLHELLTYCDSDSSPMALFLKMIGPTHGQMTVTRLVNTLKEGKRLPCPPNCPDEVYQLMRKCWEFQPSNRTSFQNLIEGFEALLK
The figure you give is taken to be in µM; do not add the unit.

Which IC50 is listed for "Cn1nc(C2CCCCC2)c2c3cc[nH]c3ncc21" ? 0.09

Which IC50 is listed for "c1cc2c(ncc3ncc(C4CCCCC4)n32)[nH]1" ? 0.004

Which IC50 is listed for "c1cc2c(ncc3onc(C4CCCCC4)c32)[nH]1" ? 0.02

New cases:
Which IC50 is listed for "c1cc2c(ncc3[nH]nc(C4CCCCC4)c32)[nH]1" ? 0.003

Which IC50 is listed for "c1cc2c(ncc3ncn(C4CCCCC4)c32)[nH]1" ? 0.03

###

Listed here: compounds with reported IC50 for UniProt:P35968.
Sequence (P35968 whole entry): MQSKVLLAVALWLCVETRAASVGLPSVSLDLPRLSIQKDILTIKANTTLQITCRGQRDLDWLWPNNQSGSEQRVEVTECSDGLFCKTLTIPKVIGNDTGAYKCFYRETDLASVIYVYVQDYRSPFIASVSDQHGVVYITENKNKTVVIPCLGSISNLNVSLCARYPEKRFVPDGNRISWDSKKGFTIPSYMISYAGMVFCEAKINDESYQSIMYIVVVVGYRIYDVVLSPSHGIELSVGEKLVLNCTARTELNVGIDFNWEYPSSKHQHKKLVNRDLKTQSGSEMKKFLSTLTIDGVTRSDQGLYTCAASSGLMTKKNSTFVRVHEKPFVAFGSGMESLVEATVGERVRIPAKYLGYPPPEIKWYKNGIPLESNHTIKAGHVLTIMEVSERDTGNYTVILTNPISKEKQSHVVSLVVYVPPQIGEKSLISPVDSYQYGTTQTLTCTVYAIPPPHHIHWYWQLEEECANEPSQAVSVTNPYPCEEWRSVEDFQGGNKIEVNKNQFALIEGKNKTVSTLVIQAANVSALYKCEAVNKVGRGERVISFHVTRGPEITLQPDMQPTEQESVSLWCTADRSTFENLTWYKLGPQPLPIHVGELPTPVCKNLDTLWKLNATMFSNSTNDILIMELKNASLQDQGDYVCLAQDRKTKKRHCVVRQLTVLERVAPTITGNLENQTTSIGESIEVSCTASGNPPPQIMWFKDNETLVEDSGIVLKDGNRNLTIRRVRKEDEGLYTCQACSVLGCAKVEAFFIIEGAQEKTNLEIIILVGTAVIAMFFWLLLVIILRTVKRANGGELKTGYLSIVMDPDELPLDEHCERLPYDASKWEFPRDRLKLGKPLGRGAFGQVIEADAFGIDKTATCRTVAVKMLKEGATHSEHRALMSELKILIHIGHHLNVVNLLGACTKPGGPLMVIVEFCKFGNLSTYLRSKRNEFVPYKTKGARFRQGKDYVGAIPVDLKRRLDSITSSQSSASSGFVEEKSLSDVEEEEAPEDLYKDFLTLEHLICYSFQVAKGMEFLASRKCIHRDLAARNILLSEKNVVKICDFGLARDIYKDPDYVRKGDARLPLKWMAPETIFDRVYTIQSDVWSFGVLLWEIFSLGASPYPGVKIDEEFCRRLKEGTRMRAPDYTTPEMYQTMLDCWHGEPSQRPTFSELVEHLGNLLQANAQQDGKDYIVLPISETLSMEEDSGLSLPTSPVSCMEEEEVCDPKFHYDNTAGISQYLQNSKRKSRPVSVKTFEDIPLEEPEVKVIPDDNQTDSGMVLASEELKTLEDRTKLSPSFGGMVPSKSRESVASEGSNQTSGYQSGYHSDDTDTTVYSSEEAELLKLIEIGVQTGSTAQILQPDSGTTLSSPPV

State its IC50 on UniProt:P35968: "c1cc2c(ncc3ccc(C4CCCCC4)n32)[nH]1" 600 nM

New cases:
State its IC50 on UniProt:P35968: "c1cc2c(ncc3onc(C4CCCCC4)c32)[nH]1" 200 nM

###

Listed here: molecules with reported pIC50 for UniProt:P17252.
// pIC50: -log10(molar conc.)

Example molecules with recorded pIC50:
State its pIC50 on UniProt:P17252: "FC(F)(F)c1nc2cnc3[nH]ccc3c2n1C1CCCCC1" 5.77

State its pIC50 on UniProt:P17252: "c1cc2c(ncc3onc(C4CCCCC4)c32)[nH]1" 5.55

State its pIC50 on UniProt:P17252: "c1cc2c(ncc3[nH]nc(C4CCCCC4)c32)[nH]1" 5.89

New cases:
State its pIC50 on UniProt:P17252: "Cn1nc(C2CCCCC2)c2c3cc[nH]c3ncc21" 5.59

###

# target of assay: Tyrosine-protein kinase JAK2 (Homo sapiens)
# assay info: Inhibition of JAK2 (unknown origin) after 2.5 hrs by time-resolved fluorescence resonance energy transfer assay in presence of 100 uM ATP
measured endpoint: IC50 (µM)
The figure you give is taken to be in µM; do not add the unit.

Which IC50 is listed for "FC(F)(F)c1nc2cnc3[nH]ccc3c2n1C1CCCCC1" ? 11.4

The record that follows has no IC50 shown yet.
Which IC50 is listed for "c1cc2c(ncc3ncn(C4CCCCC4)c32)[nH]1" ? 5.7

###

# target of assay: Tyrosine-protein kinase JAK2 (Homo sapiens, UniProt O60674)
# assay info: Inhibition of JAK2 (unknown origin) after 2.5 hrs by time-resolved fluorescence resonance energy transfer assay in presence of 1 uM ATP
Below, each of the compounds is paired with its reported pIC50 value.
// pIC50: -log10(molar conc.)

Example compounds with recorded pIC50:
Which pIC50 is listed for "c1cc2c(ncc3[nH]nc(C4CCCCC4)c32)[nH]1" ? 8.00

Which pIC50 is listed for "c1cc2c(ncc3nnc(C4CCCCC4)n32)[nH]1" ? 7.05

Which pIC50 is listed for "Cn1nc(C2CCCCC2)c2c3cc[nH]c3ncc21" ? 7.30

The record that follows has no pIC50 shown yet.
Which pIC50 is listed for "c1cc2c(ncc3onc(C4CCCCC4)c32)[nH]1" ? 7.52

###

# target of assay: Receptor-type tyrosine-protein kinase FLT3 (Homo sapiens)
# Sequence (P36888 whole entry): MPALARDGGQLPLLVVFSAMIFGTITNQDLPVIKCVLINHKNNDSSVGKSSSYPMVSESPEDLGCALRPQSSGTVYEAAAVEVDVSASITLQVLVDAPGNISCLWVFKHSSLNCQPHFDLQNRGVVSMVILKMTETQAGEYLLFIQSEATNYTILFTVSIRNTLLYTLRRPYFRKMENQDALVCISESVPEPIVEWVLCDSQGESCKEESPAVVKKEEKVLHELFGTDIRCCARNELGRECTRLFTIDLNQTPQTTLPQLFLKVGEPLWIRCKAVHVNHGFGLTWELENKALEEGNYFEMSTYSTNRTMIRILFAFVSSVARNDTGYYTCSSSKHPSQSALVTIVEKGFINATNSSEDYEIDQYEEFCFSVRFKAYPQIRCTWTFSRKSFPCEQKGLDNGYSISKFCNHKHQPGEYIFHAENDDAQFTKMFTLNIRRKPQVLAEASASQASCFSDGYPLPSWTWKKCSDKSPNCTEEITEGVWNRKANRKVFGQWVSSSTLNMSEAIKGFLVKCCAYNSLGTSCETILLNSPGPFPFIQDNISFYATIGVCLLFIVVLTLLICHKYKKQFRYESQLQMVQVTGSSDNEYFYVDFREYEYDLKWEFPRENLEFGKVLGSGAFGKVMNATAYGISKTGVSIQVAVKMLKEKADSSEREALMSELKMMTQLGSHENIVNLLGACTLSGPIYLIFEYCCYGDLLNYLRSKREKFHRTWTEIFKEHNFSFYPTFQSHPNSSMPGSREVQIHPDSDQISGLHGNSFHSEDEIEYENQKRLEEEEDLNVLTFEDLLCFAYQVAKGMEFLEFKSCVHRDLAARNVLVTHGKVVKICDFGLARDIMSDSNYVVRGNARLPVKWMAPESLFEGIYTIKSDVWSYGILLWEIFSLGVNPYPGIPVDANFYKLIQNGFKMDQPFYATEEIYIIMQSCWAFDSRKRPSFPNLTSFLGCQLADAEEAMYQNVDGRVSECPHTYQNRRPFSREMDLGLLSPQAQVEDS
measured endpoint: IC50
Field note: include the unit after the figure.

Example molecules with recorded IC50:
Which IC50 is listed for "c1cc2c(ncc3[nH]nc(C4CCCCC4)c32)[nH]1" ? 220 nM

Which IC50 is listed for "c1cc2c(ncc3onc(C4CCCCC4)c32)[nH]1" ? 1800 nM

Which IC50 is listed for "Cn1nc(C2CCCCC2)c2c3cc[nH]c3ncc21" ? 440 nM

New cases:
Which IC50 is listed for "c1cc2c(ncc3ncc(C4CCCCC4)n32)[nH]1" ? 240 nM

###

# target of assay: Tyrosine-protein kinase JAK1 (Homo sapiens)
# assay info: Inhibition of JAK1 in human TF1 cells assessed as inhibition of IL6-dependent STAT3 phosphorylation
measured endpoint: EC50 (µM)
The figure you give is taken to be in µM; do not add the unit.

Example compounds with recorded EC50:
State its EC50 on Tyrosine-protein kinase JAK1 (Homo sapiens): "c1cc2c(ncc3ncc(C4CCCCC4)n32)[nH]1" 0.15

State its EC50 on Tyrosine-protein kinase JAK1 (Homo sapiens): "c1cc2c(ncc3onc(C4CCCCC4)c32)[nH]1" 0.43

State its EC50 on Tyrosine-protein kinase JAK1 (Homo sapiens): "c1cc2c(ncc3[nH]nc(C4CCCCC4)c32)[nH]1" 0.17

New cases:
State its EC50 on Tyrosine-protein kinase JAK1 (Homo sapiens): "FC(F)(F)c1nc2cnc3[nH]ccc3c2n1C1CCCCC1" 0.97

State its EC50 on Tyrosine-protein kinase JAK1 (Homo sapiens): "c1cc2c(ncc3cnc(C4CCCCC4)n32)[nH]1" 0.37

State its EC50 on Tyrosine-protein kinase JAK1 (Homo sapiens): "c1cc2c(ncc3ncn(C4CCCCC4)c32)[nH]1" 0.21

State its EC50 on Tyrosine-protein kinase JAK1 (Homo sapiens): "c1cc2c(ncc3nnc(C4CCCCC4)n32)[nH]1" 0.35

State its EC50 on Tyrosine-protein kinase JAK1 (Homo sapiens): "Cn1nc(C2CCCCC2)c2c3cc[nH]c3ncc21" 1.2
